pIC50 values for the molecules below.
Test System: human TREK-1 (Homo sapiens, UniProt O95069)
Construct: expressed in transfected cells
Sequence (O95069 whole entry): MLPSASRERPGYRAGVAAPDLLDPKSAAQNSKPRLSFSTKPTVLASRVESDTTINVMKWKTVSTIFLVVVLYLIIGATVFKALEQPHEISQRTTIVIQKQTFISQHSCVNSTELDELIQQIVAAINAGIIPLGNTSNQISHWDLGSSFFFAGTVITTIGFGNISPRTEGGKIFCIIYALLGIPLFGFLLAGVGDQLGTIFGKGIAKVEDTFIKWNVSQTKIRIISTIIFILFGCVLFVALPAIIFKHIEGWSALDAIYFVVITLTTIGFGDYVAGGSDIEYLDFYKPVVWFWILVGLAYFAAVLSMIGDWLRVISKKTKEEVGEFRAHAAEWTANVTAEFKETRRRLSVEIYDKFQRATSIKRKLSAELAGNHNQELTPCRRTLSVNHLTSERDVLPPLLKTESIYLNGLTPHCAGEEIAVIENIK
Assay: TREK-1 Manual Patch Clamp (hMPC) assay
Format: cell-based
Measurement Conditions: CHO-K1 cells stably expressing human TREK-1; whole-cell current at 0 mV
Field pIC50 (float): negative decimal logarithm of the concentration in molar.

A selection of reference data follows.
> print(dat)
                                  structure                               test.system  readout.label  measurement
1  CC(=O)N1CCC(n2ncc(Cl)c2C(=O)Nc2ncc(C#Cc3ccc(F)cc3)cc2C)CC1  human TREK-1 (Homo sapiens, UniProt O95069)          pIC50         7.05
2  CC(=O)N[C@H]1CC[C@@H](n2ncc(Cl)c2C(=O)Nc2ncc(C#Cc3ccc(F)cc3)cc2C)CC1  human TREK-1 (Homo sapiens, UniProt O95069)          pIC50         8.70

Now turn to the next molecule.
Field request: pIC50 | item: `O=C(Nc1ncc(C#Cc2ccccc2)cc1F)c1c(Cl)cnn1C[C@H]1COCCO1` 7.15

---

# Lookup of reported pIC50 keyed by entry
Test System: human TREK-1 (Homo sapiens, UniProt O95069)
Construct: expressed in transfected cells
Assay: TREK-1 Thallium (Tl+) flux assay, Method 1
Type: cell-based
Measurement Conditions: TREK-1 Thallium (Tl+) flux assay; values without footnote *12 are Method 1
Scale explanation: pIC50 corresponds to minus log10 of a concentration expressed in moles per litre.

// worked examples, pIC50 included
> print(dat)
                                   compound                               test.system  measurement
1  CCC(=O)N1CCC(n2ncc(Cl)c2C(=O)Nc2ncc(C#Cc3ccccc3)cc2C)CC1 [Compound 41]  human TREK-1 (Homo sapiens, UniProt O95069)         6.89
2  O=C(Nc1ncc(C#Cc2ccccc2)cc1F)c1c(Cl)cnn1C1CCN(C(=O)CC(F)(F)F)CC1 [Compound 55]  human TREK-1 (Homo sapiens, UniProt O95069)         6.85
3  Cc1cc(C#Cc2ccc(F)cc2)cnc1NC(=O)c1c(Cl)cnn1C1CC2(C1)CN(C(=O)C(C)C)C2 [Compound 116]  human TREK-1 (Homo sapiens, UniProt O95069)         6.70
4  O=C(Nc1ncc(C#Cc2cccc(F)c2)cc1F)c1c(Cl)cnn1CC1CCOCC1 [Compound 50]  human TREK-1 (Homo sapiens, UniProt O95069)         6.85
5  CC(C)(C)C(=O)N1CCC(n2ncc(Cl)c2C(=O)Nc2ncc(C#Cc3ccccc3)cc2F)CC1 [Compound 100]  human TREK-1 (Homo sapiens, UniProt O95069)         6.72

pIC50 lookup needed for O=C(Nc1ncc(C#Cc2cccs2)cc1F)c1c(Cl)cnn1CC1CCOCC1 [Compound 69] , thanks. 6.80

Now consider Cc1cc(C#Cc2ccc(F)cc2)cnc1NC(=O)c1c(Cl)cnn1C1CCN(C(=O)C2CC2)CC1 [Compound 101] and answer again. 6.72

Now the same for CC(=O)N1CCC(n2ncc(Cl)c2C(=O)Nc2ncc(C#Cc3ccccc3F)cc2C)CC1 [Compound 164] 6.59

Follow-up entry: Cc1cc(C#Cc2ccccc2)cnc1NC(=O)c1c(Cl)cnn1C[C@@H]1CCN(C(=O)C(C)C)C[C@@H]1F [Compound 118] 6.70

Thanks! And CC(C)(C)OC(=O)N1C[C@H]2C[C@H](n3ncc(Cl)c3C(=O)Nc3ncc(C#Cc4ccccc4)cc3F)C[C@H]2C1 [Compound 170] ? 6.57

Then Cc1cc(C#Cc2ccccc2)cnc1NC(=O)c1c(Cl)cnn1CC1CCOCC1 [Compound 2] ? 6.70

---

Test System: human TREK-1 (Homo sapiens)
Construct: expressed in transfected cells
Assay: TREK-1 Thallium (Tl+) flux assay, Method 1
Format: cell-based
Measurement Conditions: read-out: Tl^+ Assay % inhibition at 30 uM (Minus value indicates activation of TREK-1); at 30 uM; CHO-K1 cells stably expressing human TREK-1; minus = activation
Catalogue of inhibition at 30 µM values
Report the value in % with no unit label.

> print(dat)
                                   compound  unit.string  measurement
1  Cn1ncc2c1CC(n1cc(Cl)c(C(=O)Nc3ncc(C#Cc4ccccc4)cc3F)n1)CC2=O (stereo not drawn)            %          -56

Find the measured inhibition at 30 µM: item `O=C(Nc1ncc(C#Cc2cccs2)cc1F)c1nn(CCC2CCN(C(=O)C3CC3)CC2)cc1Cl` , target or system human TREK-1 (Homo sapiens). -62

Quick one: `Cc1cc(C#Cc2ccc(F)cc2)cnc1NC(=O)c1nn(CCC2CCN(C(=O)C3CC3)CC2)cc1Cl` -79

What about this compound? `Cc1cc(C#Cc2ccccc2)cnc1NC(=O)c1nn(C2CCOCC2)cc1Cl` -116

Next up: `CC(=O)N1CCC(CCn2cc(Cl)c(C(=O)Nc3ncc(C#Cc4cccc(F)c4)cc3C)n2)CC1` -163

Would you mind doing O=C(Nc1ncc(C#Cc2cccs2)cc1F)c1nn(CCC2CCN(C(=O)C3COCCO3)CC2)cc1Cl (stereo not drawn) as well? -106

Thanks! And `CC(=O)N1CCC(CCn2cc(Cl)c(C(=O)Nc3ncc(C#Cc4ccc(F)cc4)cc3C)n2)CC1` ? -118

---

Measured IC50, listed per entry.
Test System: human TREK-1 (Homo sapiens)
Construct: expressed in transfected cells
Assay: TREK-1 Thallium (Tl+) flux assay, Method 1
Assay type: cell-based
Measurement Conditions: TREK-1 Thallium (Tl+) flux assay; no *^12 (Method 2) mark on these rows
Lab book: enter the figure in nM, no units written.

Here are 3 molecules together with their reported answers.
> print(dat)
                                   molecule                  test.system  unit.string  measurement
1  Cc1cc(C#Cc2ccccc2)cnc1NC(=O)c1c(Cl)cnn1CC1CC(C)OC(C)C1 (stereo not shown) [Compound 340]  human TREK-1 (Homo sapiens)           nM          740
2  Cc1cc(C#Cc2ccc(F)cc2)cnc1NC(=O)c1c(Cl)cnn1C1CCN(C(=O)C2CC2)C1 (stereo not shown) [Compound 229]  human TREK-1 (Homo sapiens)           nM          350
3  N#CC1CC(n2ncc(Cl)c2C(=O)Nc2c(F)cc(C#Cc3ccccc3)cc2F)C1 (stereo not shown) [Compound 245]  human TREK-1 (Homo sapiens)           nM          390

Attention now turns to another entry.
Value lookup for IC50; key = Cc1cc(C#Cc2ccc(F)cc2)cnc1NC(=O)c1c(Cl)cnn1CC1(F)CCN(C(=O)C2CC2)CC1 [Compound 302] 550

---

Assay: Rat hepatic microsomal intrinsic clearance
Type: in vitro ADME
Measurement Conditions: rat hepatic microsomes
Readout Label: CLint scaled (mL/min/kg)
Your answer should be a plain number; it is taken to be in mL/min/kg.

Given the molecule CC(=O)N[C@H]1CC[C@@H](n2ncc(Cl)c2C(=O)Nc2ncc(C#Cc3ccccc3)cc2C)CC1 [Compound 12] , what is its reported CLint scaled? 54

---

Assay: Mouse hepatic microsomal intrinsic clearance
Assay type: in vitro ADME
Measurement Conditions: mouse hepatic microsomes
Readout Label: CLint scaled (mL/min/kg)
Answer in mL/min/kg, number only, no unit symbol.

Look up CLint scaled: `CC(=O)N[C@H]1CC[C@@H](n2ncc(Cl)c2C(=O)Nc2ncc(C#Cc3ccccc3)cc2C)CC1` 103

---

Test System: human TREK-1 (Homo sapiens, UniProt O95069)
Construct: expressed in transfected cells
Assay: TREK-1 Thallium (Tl+) flux assay, Method 1
Assay type: cell-based
Measurement Conditions: TREK-1 Thallium (Tl+) flux assay, Method 1
Readout Label: IC50 (µM)
Only the number, expressed in µM, is required.

> print(dat)
                                   compound  readout.label  measurement
1  Cc1cc(OCc2ccccc2)ccc1NC(=O)c1c(Cl)cnn1CC1CN(C(=O)CC(C)C)CCO1 (stereo not shown)           IC50         5.52

Given the compound `Cc1cc(OCc2ccccc2)ccc1NC(=O)c1c(Cl)cnn1C1CC2(C1)CN(C(=O)C(C)C)C2` , what is its reported IC50? 1.74

What do you have for `CC(=O)N1CCC(n2ncc(Cl)c2C(=O)Nc2ncc(-c3ccc(OC(F)(F)F)cc3)cc2C)CC1` ? 3.62

Try the compound `Cc1cc(OCc2ccccc2)ccc1NC(=O)c1c(Cl)cnn1C1CC2(C1)CN(C(=O)C1CC1)C2` 2.54

---

Test System: human TREK-1 (Homo sapiens)
Construct: expressed in transfected cells
Assay: TREK-1 Thallium (Tl+) flux assay, Method 1
Type: cell-based
Measurement Conditions: TREK-1 Thallium (Tl+) flux assay; no *^12 (Method 2) mark on these rows
Label Criterion met when IC50 is strictly below 500 nM; at or above that, label Criterion not met.

> print(dat)
                                   compound           category
1  O=C(Nc1ncc(C#Cc2ccccc2)cc1F)c1c(Cl)cnn1C1CCN(C(=O)C2CCCC2)CC1 [Compound 299]  Criterion not met

Criterion: IC50 strictly below 500 nM. Is it met by Cc1cc(C#Cc2ccc(F)cc2)cnc1NC(=O)c1c(Cl)cnn1CC1CCCN(C(=O)C2CC2C)C1 (centres unmarked) [Compound 264] ? Criterion met

What would you report for Cc1cc(C#Cc2ccccc2)cnc1NC(=O)c1c(Cl)cnn1C1CCOCC1 [Compound 210] ? Criterion met

Where do these numbers come from? They come from patent US20240182445A1.
